TARGET_ENTITY: PrP^Sc (Bos taurus, UniProt P10279)
Type: binding, cattle

{"columns": ["SUBSTANCE", "READOUT_UNITS", "PrP^Sc binding efficiency (relative)"],
 "data": [
  ["Lys-Leu-Val-Phe-Phe [Peptide 2]", "%", 100.0],
  ["Leu-Pro-Phe-Phe-Asp (LPFFD; beta-sheet binding peptide) [Peptide 3]", "%", 46.6],
  ["Gly-Val-Val-Ile-Ala [Peptide 6]", "%", 64.5],
  ["Arg-Val-Val-Ile-Ala [Peptide 1]", "%", 54.7]
]}
